- Experimental target: Cholecystokinin receptor type A (Homo sapiens)
- Sequence (P32238 whole entry): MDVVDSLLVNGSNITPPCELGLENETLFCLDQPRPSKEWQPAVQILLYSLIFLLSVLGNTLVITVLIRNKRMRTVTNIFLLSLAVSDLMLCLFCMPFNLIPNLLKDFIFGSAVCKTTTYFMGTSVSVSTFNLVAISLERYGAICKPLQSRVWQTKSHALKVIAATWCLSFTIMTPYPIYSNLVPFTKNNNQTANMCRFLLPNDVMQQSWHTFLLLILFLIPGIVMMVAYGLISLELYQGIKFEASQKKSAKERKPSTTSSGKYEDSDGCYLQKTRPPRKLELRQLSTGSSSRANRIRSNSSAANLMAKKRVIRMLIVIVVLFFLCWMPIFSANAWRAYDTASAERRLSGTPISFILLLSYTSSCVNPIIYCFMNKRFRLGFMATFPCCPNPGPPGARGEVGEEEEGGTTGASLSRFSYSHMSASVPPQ
- Protocol summary: Displacement of [125I]CCK8 from human CCK1 receptor expressed in HEK293 cells
Readout: IC50 (nM)
Answers are plain numbers, in nM.

CCCC[C@H](NC(=O)[C@H](N)Cc1c[nH]c2ccccc12)C(=O)N[C@@H](CC(=O)O)C(=O)N[C@@H](Cc1ccccc1)C(=O)NNC(=O)[C@H](Cc1ccccc1)NC(=O)CNC(=O)[C@@H](C)NC(=O)[C@@H](N)Cc1ccc(O)cc1 = 10200
CCCC[C@@H](C(=O)N[C@@H](CC(=O)O)C(=O)N[C@@H](Cc1ccccc1)C(=O)NNC(=O)[C@H](Cc1ccccc1)NC(=O)CNC(=O)[C@@H](C)NC(=O)[C@@H](N)Cc1ccc(O)cc1)N(C)C(=O)[C@@H](Cc1c[nH]c2ccccc12)NC(=O)OC(C)(C)C = 1910
CCCC[C@H](NC(=O)[C@@H](Cc1c[nH]c2ccccc12)NC(=O)OC12CC3CC(CC(C3)C1)C2)C(=O)N[C@@H](CC(=O)O)C(=O)N[C@@H](Cc1ccccc1)C(=O)NNC(=O)[C@H](Cc1ccccc1)NC(=O)CNC(=O)[C@@H](C)NC(=O)[C@@H](N)Cc1ccc(O)cc1 = 851

// each compound listed below needs its IC50
1. CCCC[C@H](NC(=O)[C@H](Cc1c[nH]c2ccccc12)NC(=O)OC(C)(C)C)C(=O)N[C@@H](CC(=O)O)C(=O)N[C@@H](Cc1ccccc1)C(=O)NNC(=O)[C@H](Cc1ccccc1)NC(=O)CNC(=O)[C@@H](C)NC(=O)[C@@H](N)Cc1ccc(O)cc1
2. CCCC[C@H](NC(=O)[C@@H](Cc1c[nH]c2ccccc12)NC(=O)OC1C2CC3CC(C2)CC1C3)C(=O)N[C@@H](CC(=O)O)C(=O)N[C@@H](Cc1ccccc1)C(=O)NNC(=O)[C@H](Cc1ccccc1)NC(=O)CNC(=O)[C@@H](C)NC(=O)[C@@H](N)Cc1ccc(O)cc1 (stereo partly specified)
3. CCCC[C@H](NC(=O)[C@@H](Cc1c[nH]c2ccccc12)NC(=O)OC(C)(C)C)C(=O)N[C@@H](CC(=O)O)C(=O)N[C@@H](Cc1ccccc1)C(=O)NNC(=O)[C@H](Cc1ccccc1)NC(=O)CNC(=O)[C@@H](C)NC(=O)[C@@H](N)Cc1ccc(O)cc1

A.
1: 4070; 2: 575; 3: 35500

----------
- Experimental target: Gastrin/cholecystokinin type B receptor (Homo sapiens)
- Sequence (P32239 whole entry): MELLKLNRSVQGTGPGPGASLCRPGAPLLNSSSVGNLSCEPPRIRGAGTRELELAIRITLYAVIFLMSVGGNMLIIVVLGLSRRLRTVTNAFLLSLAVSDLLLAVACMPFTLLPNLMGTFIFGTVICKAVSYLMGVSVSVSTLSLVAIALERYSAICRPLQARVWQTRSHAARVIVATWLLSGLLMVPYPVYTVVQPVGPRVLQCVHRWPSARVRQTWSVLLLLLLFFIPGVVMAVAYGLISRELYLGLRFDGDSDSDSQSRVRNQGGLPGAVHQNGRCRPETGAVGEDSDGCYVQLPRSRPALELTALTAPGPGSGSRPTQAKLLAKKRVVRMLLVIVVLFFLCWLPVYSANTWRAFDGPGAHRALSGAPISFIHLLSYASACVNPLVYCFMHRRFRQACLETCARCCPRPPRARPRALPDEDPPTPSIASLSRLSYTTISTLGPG
- Protocol summary: Displacement of [125I]CCK8 from human CCK2 receptor expressed in HEK293 cells
Kindly state log10(IC50) for each of the entries shown.
# values: log10(IC50), units nM

CCCC[C@H](NC(=O)[C@@H](Cc1c[nH]c2ccccc12)NC(=O)OC12CC3CC(CC(C3)C1)C2)C(=O)N[C@@H](CC(=O)O)C(=O)N[C@@H](Cc1ccccc1)C(=O)NNC(=O)[C@H](Cc1ccccc1)NC(=O)CNC(=O)[C@@H](C)NC(=O)[C@@H](N)Cc1ccc(O)cc1 = 2.75
CCCC[C@H](NC(=O)[C@H](Cc1c[nH]c2ccccc12)NC(=O)OC(C)(C)C)C(=O)N[C@@H](CC(=O)O)C(=O)N[C@@H](Cc1ccccc1)C(=O)NNC(=O)[C@H](Cc1ccccc1)NC(=O)CNC(=O)[C@@H](C)NC(=O)[C@@H](N)Cc1ccc(O)cc1 = 3.60
CCCC[C@@H](C(=O)N[C@@H](CC(=O)O)C(=O)N[C@@H](Cc1ccccc1)C(=O)NNC(=O)[C@H](Cc1ccccc1)NC(=O)CNC(=O)[C@@H](C)NC(=O)[C@@H](N)Cc1ccc(O)cc1)N(C)C(=O)[C@@H](Cc1c[nH]c2ccccc12)NC(=O)OC(C)(C)C = 3.19
CCCC[C@H](NC(=O)[C@@H](Cc1c[nH]c2ccccc12)NC(=O)OC(C)(C)C)C(=O)N[C@@H](CC(=O)O)C(=O)N[C@@H](Cc1ccccc1)C(=O)NNC(=O)[C@H](Cc1ccccc1)NC(=O)CNC(=O)[C@@H](C)NC(=O)[C@@H](N)Cc1ccc(O)cc1 = 4.00
CCCC[C@H](NC(=O)[C@H](Cc1c[nH]c2ccccc12)NC(C)=O)C(=O)N[C@@H](CC(=O)O)C(=O)N[C@@H](Cc1ccccc1)C(=O)NNC(=O)[C@H](Cc1ccccc1)NC(=O)CNC(=O)[C@@H](C)NC(=O)[C@@H](N)Cc1ccc(O)cc1 = 3.12

Please give log10(IC50) for each item listed below.
1. CCCC[C@H](NC(=O)[C@H](N)Cc1c[nH]c2ccccc12)C(=O)N[C@@H](CC(=O)O)C(=O)N[C@@H](Cc1ccccc1)C(=O)NNC(=O)[C@H](Cc1ccccc1)NC(=O)CNC(=O)[C@@H](C)NC(=O)[C@@H](N)Cc1ccc(O)cc1
2. CCCC[C@H](NC(=O)[C@@H](Cc1c[nH]c2ccccc12)NC(=O)OC1C2CC3CC(C2)CC1C3)C(=O)N[C@@H](CC(=O)O)C(=O)N[C@@H](Cc1ccccc1)C(=O)NNC(=O)[C@H](Cc1ccccc1)NC(=O)CNC(=O)[C@@H](C)NC(=O)[C@@H](N)Cc1ccc(O)cc1 (some centres not stated)

A.
3.97
2.97

----------
- Experimental target: Delta-type opioid receptor (Homo sapiens, UniProt P41143)
- Sequence (P41143 whole entry): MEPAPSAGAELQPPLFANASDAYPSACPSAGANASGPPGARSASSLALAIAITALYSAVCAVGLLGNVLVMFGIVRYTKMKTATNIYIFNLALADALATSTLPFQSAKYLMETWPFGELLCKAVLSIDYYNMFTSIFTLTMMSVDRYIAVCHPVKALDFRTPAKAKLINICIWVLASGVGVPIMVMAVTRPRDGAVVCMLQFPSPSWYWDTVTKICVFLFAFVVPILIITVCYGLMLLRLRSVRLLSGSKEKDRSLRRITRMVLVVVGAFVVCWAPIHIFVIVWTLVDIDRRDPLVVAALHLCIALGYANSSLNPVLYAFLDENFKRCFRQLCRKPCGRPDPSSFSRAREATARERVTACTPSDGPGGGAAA
- Protocol summary: Inhibition of [35S]GTP-gamma-S binding to human delta opioid receptor expressed in CHO cells
- Type: functional, cell-based
For each entry below, report its pEC50 value.
Numbers only, as −log10 of the molar value.

# example entries with known answers
CCCC[C@H](NC(=O)[C@H](Cc1c[nH]c2ccccc12)NC(C)=O)C(=O)N[C@@H](CC(=O)O)C(=O)N[C@@H](Cc1ccccc1)C(=O)NNC(=O)[C@H](Cc1ccccc1)NC(=O)CNC(=O)[C@@H](C)NC(=O)[C@@H](N)Cc1ccc(O)cc1 = 7.27
CCCC[C@H](NC(=O)[C@H](N)Cc1c[nH]c2ccccc12)C(=O)N[C@@H](CC(=O)O)C(=O)N[C@@H](Cc1ccccc1)C(=O)NNC(=O)[C@H](Cc1ccccc1)NC(=O)CNC(=O)[C@@H](C)NC(=O)[C@@H](N)Cc1ccc(O)cc1 = 8.03

Kindly consider the entry below.
Q. Suppose we examine the compound CCCC[C@H](NC(=O)[C@@H](Cc1c[nH]c2ccccc12)NC(=O)OC12CC3CC(CC(C3)C1)C2)C(=O)N[C@@H](CC(=O)O)C(=O)N[C@@H](Cc1ccccc1)C(=O)NNC(=O)[C@H](Cc1ccccc1)NC(=O)CNC(=O)[C@@H](C)NC(=O)[C@@H](N)Cc1ccc(O)cc1 ; what pEC50 value has been reported?
A. 7.57

----------
Consider compounds characterized by their pKi with Mu-type opioid receptor (Rattus norvegicus, UniProt P33535).
Sequence (P33535 whole entry): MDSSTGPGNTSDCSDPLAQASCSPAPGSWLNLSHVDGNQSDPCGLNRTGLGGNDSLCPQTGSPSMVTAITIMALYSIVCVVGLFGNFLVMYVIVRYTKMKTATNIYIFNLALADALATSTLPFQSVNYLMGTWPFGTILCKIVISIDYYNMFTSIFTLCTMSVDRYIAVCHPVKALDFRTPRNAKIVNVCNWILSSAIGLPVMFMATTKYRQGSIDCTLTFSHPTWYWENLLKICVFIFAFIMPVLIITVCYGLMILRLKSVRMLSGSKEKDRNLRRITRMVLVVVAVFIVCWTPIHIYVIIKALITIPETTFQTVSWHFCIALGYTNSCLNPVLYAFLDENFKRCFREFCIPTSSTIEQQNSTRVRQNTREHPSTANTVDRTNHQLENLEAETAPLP
Give bare numbers, as −log10 of the molar value.

CCCC[C@@H](C(=O)N[C@@H](CC(=O)O)C(=O)N[C@@H](Cc1ccccc1)C(=O)NNC(=O)[C@H](Cc1ccccc1)NC(=O)CNC(=O)[C@@H](C)NC(=O)[C@@H](N)Cc1ccc(O)cc1)N(C)C(=O)[C@@H](Cc1c[nH]c2ccccc12)NC(=O)OC(C)(C)C = 7.70
CCCC[C@H](NC(=O)[C@@H](Cc1c[nH]c2ccccc12)NC(=O)OC(C)(C)C)C(=O)N[C@@H](CC(=O)O)C(=O)N[C@@H](Cc1ccccc1)C(=O)NNC(=O)[C@H](Cc1ccccc1)NC(=O)CNC(=O)[C@@H](C)NC(=O)[C@@H](N)Cc1ccc(O)cc1 = 7.51
CCCC[C@H](NC(=O)[C@H](Cc1c[nH]c2ccccc12)NC(C)=O)C(=O)N[C@@H](CC(=O)O)C(=O)N[C@@H](Cc1ccccc1)C(=O)NNC(=O)[C@H](Cc1ccccc1)NC(=O)CNC(=O)[C@@H](C)NC(=O)[C@@H](N)Cc1ccc(O)cc1 = 7.59
CCCC[C@H](NC(=O)[C@H](N)Cc1c[nH]c2ccccc12)C(=O)N[C@@H](CC(=O)O)C(=O)N[C@@H](Cc1ccccc1)C(=O)NNC(=O)[C@H](Cc1ccccc1)NC(=O)CNC(=O)[C@@H](C)NC(=O)[C@@H](N)Cc1ccc(O)cc1 = 9.29

For each of the compounds below, state pKi.
1. CCCC[C@H](NC(=O)[C@H](Cc1c[nH]c2ccccc12)NC(C)=O)C(=O)N[C@@H](CC(=O)O)C(=O)N(C)[C@@H](Cc1ccccc1)C(=O)NNC(=O)[C@H](Cc1ccccc1)NC(=O)CNC(=O)[C@@H](C)NC(=O)[C@@H](N)Cc1ccc(O)cc1
2. CCCC[C@H](NC(=O)[C@@H](Cc1c[nH]c2ccccc12)NC(=O)OC12CC3CC(CC(C3)C1)C2)C(=O)N[C@@H](CC(=O)O)C(=O)N[C@@H](Cc1ccccc1)C(=O)NNC(=O)[C@H](Cc1ccccc1)NC(=O)CNC(=O)[C@@H](C)NC(=O)[C@@H](N)Cc1ccc(O)cc1
3. CCCC[C@H](NC(=O)[C@@H](Cc1c[nH]c2ccccc12)NC(=O)OC1C2CC3CC(C2)CC1C3)C(=O)N[C@@H](CC(=O)O)C(=O)N[C@@H](Cc1ccccc1)C(=O)NNC(=O)[C@H](Cc1ccccc1)NC(=O)CNC(=O)[C@@H](C)NC(=O)[C@@H](N)Cc1ccc(O)cc1 (some centres undefined)
4. CCCC[C@H](NC(=O)[C@H](Cc1c[nH]c2ccccc12)NC(=O)OC(C)(C)C)C(=O)N[C@@H](CC(=O)O)C(=O)N[C@@H](Cc1ccccc1)C(=O)NNC(=O)[C@H](Cc1ccccc1)NC(=O)CNC(=O)[C@@H](C)NC(=O)[C@@H](N)Cc1ccc(O)cc1
5. CC(=O)N[C@@H](Cc1c[nH]c2ccccc12)C(=O)N[C@@H](CCCCNC(=O)Nc1ccccc1Cl)C(=O)N[C@@H](CC(=O)O)C(=O)N(C)[C@@H](Cc1ccccc1)C(=O)NNC(=O)[C@H](Cc1ccccc1)NC(=O)CNC(=O)[C@@H](C)NC(=O)[C@@H](N)Cc1ccc(O)cc1

A.
8.28
7.06
7.80
7.62
9.04
